Just for reference, patent US7868005B2 is where these values come from.

Target: human CXCR3 (N-delta 4) (Homo sapiens)
Construct: CD8 leader (N); Flag; expressed in transfected cells; membranes prepared
Sequence (P49682 5-368 limits assumed): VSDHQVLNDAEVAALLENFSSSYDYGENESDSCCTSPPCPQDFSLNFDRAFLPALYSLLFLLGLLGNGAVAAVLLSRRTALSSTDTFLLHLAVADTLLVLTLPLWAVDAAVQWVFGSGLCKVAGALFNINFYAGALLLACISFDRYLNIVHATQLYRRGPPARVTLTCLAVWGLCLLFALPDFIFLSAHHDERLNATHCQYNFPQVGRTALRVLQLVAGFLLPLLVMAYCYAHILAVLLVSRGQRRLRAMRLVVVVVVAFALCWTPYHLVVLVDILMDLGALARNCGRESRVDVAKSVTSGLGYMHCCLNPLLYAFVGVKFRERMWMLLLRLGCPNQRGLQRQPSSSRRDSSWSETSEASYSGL
Assay: Human CXCR3 (N-delta 4) Scintillation Proximity Assay (SPA), [125I] IP-10 binding to Ba/F3-hCXCR3 membranes
Settings: IC50 rating, Table 1; read-out: IC50
RESULT_TYPE: IC50

Example molecules with recorded IC50:
CC[C@H]1CN(c2nc(N)c(C(N)=O)nc2Cl)CCN1C1CCN(Cc2ccc(Cl)cc2C2OC(=O)NC2=O)CC1 (stereo partly shown) ... > 100 nM
CC[C@H]1CN(c2nc(N)c(C(N)=O)nc2Cl)CCN1C1CCN(Cc2ccc(Cl)cc2CCn2ccnc2)CC1 ... > 100 nM
CC[C@H]1CN(c2nc(N)c(C(=O)NCCO)nc2Cl)CCN1C1CCN(C(=O)c2ccc(Cl)cc2)CC1 ... < 25 nM

Each molecule below has a recorded value; state its IC50.
1. CC[C@H]1CN(c2nc(N)c(C(=O)NC)nc2Cl)CCN1C1CCN(C(=O)c2ccc(Cl)cc2N)CC1
2. COC(=O)c1cnc(N2C[C@H](C)N(C3CCN(Cc4ccc(Cl)cc4F)CC3)C[C@H]2C)cn1

*A*
["< 25 nM", "> 100 nM"]

Go through the list and state IC50 for each entry.
1. CC[C@H]1CN(c2nc(N)c(C(=O)NCCNS(N)(=O)=O)nc2Cl)CCN1C1CCN(Cc2ccc(F)c(F)c2)CC1
2. CCC1CN(c2nc(N)c(C(=O)NC3CC3)nc2Cl)CCN1C1CCN(C(CCN)c2ccc(Cl)cc2)CC1 (stereo not shown)

*A*
1: < 25 nM; 2: < 25 nM
